# MEASUREMENT NOTES: Pharmacokinetics evaluation after gavage
# Format: in vivo, Sprague Dawley (SD) rats
# CONDITION DESCRIPTION: male, Sprague Dawley, rat, plasma; SD rats, oral (gavage) 50 mg kg^−1; read-out: MRT(0-t) (converted)
ATTRIBUTE MEASURED: MRT last (h)
Answers are plain numbers, in h.

1) COc1cc(/C=C2\CN(C(C)C)C/C(=C\c3cc(OC)c(O)c(OC)c3)C2=O)cc(OC)c1O
3.02

## Task Fill in the blank: the reported MRT last of COc1cc(/C=C/C(=O)CC(=O)/C=C/c2ccc(O)c(OC)c2)ccc1O is ____.
## Result 0.9

====

# MEASUREMENT NOTES: Pharmacokinetics evaluation after gavage
# Assay type: in vivo, Sprague Dawley (SD) rats
# CONDITION DESCRIPTION: male, Sprague Dawley, rat, plasma; SD rats, oral (gavage) 50 mg kg^−1
Please respond with reported Cmax for every item in the list.
One number for each entry, in ng/mL.

Can you give me Cmax for all of these, one by one?
1. COc1cc(/C=C2\CN(C(C)C)C/C(=C\c3cc(OC)c(O)c(OC)c3)C2=O)cc(OC)c1O
2. COc1cc(/C=C/C(=O)CC(=O)/C=C/c2ccc(O)c(OC)c2)ccc1O

## Result
1: 1360; 2: 380

====

# Test system: colon cancer cells Caco-2
# MEASUREMENT NOTES: MTT antiproliferative assay, Caco-2
# Format: cell-based, human
# CONDITION DESCRIPTION: Homo sapiens, Caco-2, 48 h; read-out: IC50 Caco2
Please provide measured log10(IC50) for the entries that follow.
Hey, these are logged values: log10 of IC50, µM being the unit before logging.

Check out these entries, answers already filled in.
1) COc1cc(/C=C2\CN(C(C)C)C/C(=C\c3cc(OC)c(O)c(OC)c3)C2=O)cc(OC)c1O
0.23
2) COc1ccc(/C=C2\CCC/C(=C\c3ccc(OC)nc3)C2=O)cn1
1.68
3) COc1ccc(/C=C2\CN(C(C)C)C/C(=C\c3ccc(OC)nc3)C2=O)cn1
0.69
4) COc1cc(/C=C2\CN(C)C/C(=C\c3ccc(OC4CCCCO4)c(OC)c3)C2=O)ccc1OC1CCCCO1 (stereo not shown)
0.32
5) Cc1cc(/C=C2\CN(C(C)C)C/C(=C\c3cc(C)c(O)c(C)c3)C2=O)cc(C)c1O
0.87
6) COc1ccc(/C=C2\CN(C)C/C(=C\c3ccc(OC)nc3)C2=O)cn1
0.97

For every listed record, write down its log10(IC50).
1. COc1ccc(/C=C/C(=O)/C=C/c2ccc(OC)nc2)cn1
2. COc1cc(/C=C/C(=O)CC(=O)/C=C/c2ccc(O)c(OC)c2)ccc1O

## Result
1. 1.02
2. 1.52
